Reference source for all entries: the METLIN SMRT retention time set (Domingo-Almenara et al. 2019)

experiment: gradient 5% acetonitrile 3 min, to 50% in 2 min, to 85% in 15 min, held 3 min, 100 µL/min; conditions: column: Zorbax Extend-C18 2.1 x 50 mm; eluents: water / acetonitrile, 0.1% formic acid
Could you please classify the records by RP-LC retention time using these ranges: low band: < 800 s; middle band: ≥ 800 s and < 900 s; high band: ≥ 900 s

Use the examples below as a reference point.
compound	class.assignment
CCc1ccc(-c2nc(C3CC(=O)N(c4ccc(F)cc4)C3)no2)cc1 (stereo not given)	high band
CCOC(=O)COc1cc(-c2ccc(C)cc2)nc2ccc(NC(=O)C3CCCC3)cc12	middle band
O=C(Cn1cnc2nc(N3CCC(C(=O)NC4CC4)CC3)sc2c1=O)NCc1ccc(F)cc1	low band

Determine which band this compound sits in: "COC(=O)CCN1C(=O)c2ccccc2C1=O"
low band

Same again, this time with "CS(=O)(=O)N1CCC(C(=O)NCCc2csc(-c3cccs3)n2)CC1"
low band
